measurementTarget: HaloTag-ING2 PHD (mouse Ing2 200-280)
testDetails: peptide microarray binding signal (635 nm), min-max normalized on array (fraction of array maximum); higher = stronger binding
statedConditions: peptide region: Unmod H1 variant; binder concentration: 100 nM
Measured peptide microarray binding signal by item
quantity: peptide microarray binding signal

>  <binder>
LKKALAAAGYDVE [Unmod H1 variant L K K A L A A A G Y D V E]

>  <recordedMeasurement>
0.00461

$$$$
>  <binder>
EKNNSRIKLGLKS [Unmod H1 variant E K N N S R I K L G L K S]

>  <recordedMeasurement>
0.0201

$$$$
>  <binder>
ERGGVSLAALKKA [Unmod H1 variant E R G G V S L A A L K K A]

>  <recordedMeasurement>
0.0252

$$$$
>  <binder>
TPKKSAKKTPKKA [Unmod H1 variant T P K K S A K K T P K K A]

>  <recordedMeasurement>
0.0121

$$$$
